- target_or_test_system: T1, DLG3_3, Q92796
- T1 sequence (Q92796 374-475, limits assumed, looked up): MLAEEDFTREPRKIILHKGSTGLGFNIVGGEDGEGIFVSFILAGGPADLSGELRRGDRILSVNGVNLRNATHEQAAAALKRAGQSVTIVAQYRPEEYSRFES
- assay_info: holdup assay
- Parameters: key: below the threshold = too weak to quantify, mostly under pKd 3.1 to 4
- protocol_conditions: plain residues with an end cap or a label only (N-terminal biotin on a linker: ado-ado)

[
  {
    "binder": "FLVTEFNVML [DFNB31, Q9P202]",
    "pKd": "below the threshold"
  },
  {
    "binder": "VCMGDHWFDV [PRKN, O60260]",
    "pKd": "below the threshold"
  },
  {
    "binder": "HDDYFYHDEL [RCN2, Q14257]",
    "pKd": "below the threshold"
  },
  {
    "binder": "NNMAFETTHF [SLC5A12, Q1EHB4]",
    "pKd": "below the threshold"
  },
  {
    "binder": "EAVTVESTSL [SLC22A11, Q9NSA0]",
    "pKd": 3.6
  },
  {
    "binder": "THHRKIHTRV [ZNF599, Q96NL3]",
    "pKd": 4.43
  },
  {
    "binder": "QKNKDREYYV [NRXN3, Q9HDB5]",
    "pKd": "below the threshold"
  },
  {
    "binder": "NKSEPFLTWL [WWTR1, Q9GZV5]",
    "pKd": "below the threshold"
  },
  {
    "binder": "KSRPENGTVC [TMEM178B, H3BS89]",
    "pKd": "below the threshold"
  },
  {
    "binder": "SQDPKKPSRV [CBY2, Q8NA61]",
    "pKd": "below the threshold"
  },
  {
    "binder": "KEKASTETEC [TRPM1, Q7Z4N2]",
    "pKd": "below the threshold"
  },
  {
    "binder": "NISARRFTLC [FAM167B, Q9BTA0]",
    "pKd": 4.25
  },
  {
    "binder": "PLATCDETSI [SEMA4F, O95754]",
    "pKd": "below the threshold"
  },
  {
    "binder": "GSQSQVETEA [FKBP4, Q02790]",
    "pKd": "below the threshold"
  },
  {
    "binder": "QQGLLPHSSC [TYRO3, Q06418]",
    "pKd": "below the threshold"
  },
  {
    "binder": "KPDKQEEFYA [SDC3, O75056]",
    "pKd": "below the threshold"
  },
  {
    "binder": "HLSTRQGTCV [ATRNL1, Q5VV63]",
    "pKd": 3.85
  },
  {
    "binder": "PGKKPEDSRV [SLCO2B1, O94956]",
    "pKd": "below the threshold"
  },
  {
    "binder": "STYCDYTIEI [FAM71C, Q8NEG0]",
    "pKd": "below the threshold"
  },
  {
    "binder": "QKASRNESTF [POLR1D, P0DPB6]",
    "pKd": 3.6
  },
  {
    "binder": "IKLETKKTKL [SLC15A2, Q16348]",
    "pKd": 3.81
  },
  {
    "binder": "TFSRRPKTRV [CD226, Q15762]",
    "pKd": 3.81
  },
  {
    "binder": "MLPANYVEAI [NEB, P20929]",
    "pKd": "below the threshold"
  },
  {
    "binder": "SKQFDKNAYV [CLDN10, P78369]",
    "pKd": "below the threshold"
  },
  {
    "binder": "THREVKFTSL [CD46, P15529]",
    "pKd": 4.21
  },
  {
    "binder": "PAALPESTHM [SLC9A3, P48764]",
    "pKd": "below the threshold"
  },
  {
    "binder": "AKADAQESRL [PLCB2, Q00722]",
    "pKd": "below the threshold"
  },
  {
    "binder": "KLQNPNQSVV [TYRP1, P17643]",
    "pKd": "below the threshold"
  },
  {
    "binder": "GNDPDRGTSI [GRID2, O43424]",
    "pKd": "below the threshold"
  },
  {
    "binder": "TKEIPNCTSV [SORCS3, Q9UPU3]",
    "pKd": 4
  },
  {
    "binder": "IQISELETNV [SLC1A7, O00341]",
    "pKd": 3.56
  },
  {
    "binder": "EPAKETTTNV [SLC2A3, P11169]",
    "pKd": "below the threshold"
  }
]

Sourced from paper PMC9482650
